Target: hDUT (Homo sapiens)
Assay: Isothermal titration calorimetry (ITC)
Format: binding
Parameters: His tag (N); made in house
Settings: fit of the titration shown in Figure S1A, no Mg^2+
metric: pKd
When answering, recall that pKd equals minus log10 of the concentration in mol/L, and write that number alone.

Prompt: What does the data say about its pKd? Entry: O=c1ccn([C@H]2C[C@H](O)[C@@H](COP(=O)(O)NP(=O)(O)OP(=O)(O)O)O2)c(=O)[nH]1 [dUPNPP]
Completion: 4.27

###

Biological target: hDUT (Homo sapiens)
Sequence (P33316 1-164 isoform P33316-2): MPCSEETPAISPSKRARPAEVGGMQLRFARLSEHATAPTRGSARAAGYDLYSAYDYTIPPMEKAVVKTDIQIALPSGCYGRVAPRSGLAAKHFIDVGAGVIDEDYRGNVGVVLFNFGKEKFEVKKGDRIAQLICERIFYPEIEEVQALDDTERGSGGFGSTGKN
Test: Isothermal titration calorimetry (ITC)
Type: binding
Design: His tag (N); made in house
Details: apparent, no Mg^2+, pH 7.5, 293 K; average and SD
metric: pKd
When answering, recall that pKd equals minus log10 of the concentration in mol/L, and write that number alone.

Prompt: What does the data say about its pKd? Entry: O=C(O)CN(CCN(CC(=O)O)CC(=O)O)CC(=O)O
Completion: 6.70

Data credit: paper PMC6843921
